experimental-target: JAK3 (Homo sapiens, UniProt P52333)
Sequence (P52333 whole entry, species assumed): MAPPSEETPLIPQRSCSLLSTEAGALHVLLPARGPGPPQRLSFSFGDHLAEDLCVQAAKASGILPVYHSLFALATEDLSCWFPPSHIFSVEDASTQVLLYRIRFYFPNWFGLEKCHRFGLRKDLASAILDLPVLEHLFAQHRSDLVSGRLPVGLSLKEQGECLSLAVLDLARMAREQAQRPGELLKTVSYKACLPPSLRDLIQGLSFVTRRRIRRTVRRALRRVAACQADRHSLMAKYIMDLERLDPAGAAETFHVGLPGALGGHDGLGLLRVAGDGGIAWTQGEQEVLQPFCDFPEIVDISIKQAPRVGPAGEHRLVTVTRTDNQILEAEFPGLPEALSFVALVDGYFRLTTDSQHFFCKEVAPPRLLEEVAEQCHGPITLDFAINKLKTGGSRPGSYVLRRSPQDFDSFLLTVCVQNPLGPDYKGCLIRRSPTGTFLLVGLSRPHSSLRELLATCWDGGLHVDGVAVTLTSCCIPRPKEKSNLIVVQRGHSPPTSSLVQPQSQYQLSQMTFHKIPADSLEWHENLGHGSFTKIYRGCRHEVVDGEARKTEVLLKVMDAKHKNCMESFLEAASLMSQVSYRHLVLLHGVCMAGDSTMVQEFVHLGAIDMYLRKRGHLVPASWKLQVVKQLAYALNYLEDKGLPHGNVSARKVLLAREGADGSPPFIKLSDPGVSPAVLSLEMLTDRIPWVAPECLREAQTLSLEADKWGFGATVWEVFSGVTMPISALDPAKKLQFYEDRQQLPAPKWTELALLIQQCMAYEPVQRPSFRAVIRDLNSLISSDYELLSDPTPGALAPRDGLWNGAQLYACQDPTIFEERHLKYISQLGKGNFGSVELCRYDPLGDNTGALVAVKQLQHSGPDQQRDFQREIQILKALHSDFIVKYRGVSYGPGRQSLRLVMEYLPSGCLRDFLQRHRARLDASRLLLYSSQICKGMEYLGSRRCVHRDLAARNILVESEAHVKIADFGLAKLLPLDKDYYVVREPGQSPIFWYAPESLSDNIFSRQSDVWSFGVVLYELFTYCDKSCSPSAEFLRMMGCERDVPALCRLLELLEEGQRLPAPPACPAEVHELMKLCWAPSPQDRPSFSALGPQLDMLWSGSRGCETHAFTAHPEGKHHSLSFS
assay-explanation: JAK3 inhibition assay (standard radioactive enzyme assay)
Format: biochemical
experimental-parameters: average Ki if more than one value determined
pKi: −log10 of the molar value.
readout-kind: pKi

molecule="C=C(C)C(=O)Nc1cnc2[nH]cc(-c3cccc(N4C[C@@H](C)N(C(C)=O)[C@@H](C)C4)n3)c2c1 [Compound 154]" recorded_result="> 6.30"
molecule="NC(=O)c1ccc(-c2c[nH]c3ncc(Cl)cc23)nc1NCc1ccccc1 [Compound 46]" recorded_result="> 6.30"
molecule="C/C=C/C(=O)Nc1cnc2[nH]cc(-c3cccc(N4C[C@@H](C)N(C(C)=O)[C@@H](C)C4)n3)c2c1 [Compound 181]" recorded_result="> 6.30"
molecule="CC(=O)N1[C@H](C)CN(c2cccc(-c3c[nH]c4ncc(NC(=O)c5cccc(Cl)c5)cc34)n2)C[C@@H]1C [Compound 174]" recorded_result="> 6.30"

These data points were gathered from patent US8501446B2.
